# testDetails: DRUGMATRIX: Sigma2 radioligand binding (ligand: [3H] Ifenprodil)
# Assay type: cell membranes, Rattus norvegicus, Wistar, Brain, Membrane
# settings: Not Active = under 50% inhibition at 10 µM
experimentalEndpoint: IC50

Recorded IC50, per entry:
1) CISPLATIN    Not Active
2) IVERMECTIN    Not Active
3) GOLD SODIUM THIOMALATE    Not Active
4) OXALIPLATIN    Not Active

Read the next record carefully.
query: Dear colleague, I am looking for the recorded IC50 of the following substance: CARBOPLATIN
result: Not Active

====

# testDetails: DRUGMATRIX: Nicotinic Acetylcholine radioligand binding (ligand: [125I] Epibatidine)
# Type: cell membranes, Membrane
# settings: imr-32; Not Active = under 50% inhibition at 10 µM
experimentalEndpoint: IC50

1) CC(CCc1ccccc1)NCC(O)c1ccc(O)c(C(N)=O)c1 (stereo not drawn)    Not Active
2) C=CC[C@@H]1/C=C(\C)C[C@H](C)C[C@H](OC)[C@H]2O[C@@](O)(C(=O)C(=O)N3CCCC[C@H]3C(=O)O[C@H](/C(C)=C/[C@@H]3CC[C@@H](O)[C@H](OC)C3)[C@H](C)[C@@H](O)CC1=O)[C@H](C)C[C@@H]2OC [TACROLIMUS ANHYDROUS]    Not Active
3) CCc1cccc2c3c([nH]c12)C(CC)(CC(=O)O)OCC3 (stereo not drawn)    Not Active

====

# targetOfAssay: Angiotensin-converting enzyme (Oryctolagus cuniculus);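 further: enzymatic inhibition of angiotensin-converting enzyme measured with FAPGG as the substrate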; further: in other assays of this panel Not Active means under 50% inhibition at 10 µM
# Sequence (P12822 whole entry): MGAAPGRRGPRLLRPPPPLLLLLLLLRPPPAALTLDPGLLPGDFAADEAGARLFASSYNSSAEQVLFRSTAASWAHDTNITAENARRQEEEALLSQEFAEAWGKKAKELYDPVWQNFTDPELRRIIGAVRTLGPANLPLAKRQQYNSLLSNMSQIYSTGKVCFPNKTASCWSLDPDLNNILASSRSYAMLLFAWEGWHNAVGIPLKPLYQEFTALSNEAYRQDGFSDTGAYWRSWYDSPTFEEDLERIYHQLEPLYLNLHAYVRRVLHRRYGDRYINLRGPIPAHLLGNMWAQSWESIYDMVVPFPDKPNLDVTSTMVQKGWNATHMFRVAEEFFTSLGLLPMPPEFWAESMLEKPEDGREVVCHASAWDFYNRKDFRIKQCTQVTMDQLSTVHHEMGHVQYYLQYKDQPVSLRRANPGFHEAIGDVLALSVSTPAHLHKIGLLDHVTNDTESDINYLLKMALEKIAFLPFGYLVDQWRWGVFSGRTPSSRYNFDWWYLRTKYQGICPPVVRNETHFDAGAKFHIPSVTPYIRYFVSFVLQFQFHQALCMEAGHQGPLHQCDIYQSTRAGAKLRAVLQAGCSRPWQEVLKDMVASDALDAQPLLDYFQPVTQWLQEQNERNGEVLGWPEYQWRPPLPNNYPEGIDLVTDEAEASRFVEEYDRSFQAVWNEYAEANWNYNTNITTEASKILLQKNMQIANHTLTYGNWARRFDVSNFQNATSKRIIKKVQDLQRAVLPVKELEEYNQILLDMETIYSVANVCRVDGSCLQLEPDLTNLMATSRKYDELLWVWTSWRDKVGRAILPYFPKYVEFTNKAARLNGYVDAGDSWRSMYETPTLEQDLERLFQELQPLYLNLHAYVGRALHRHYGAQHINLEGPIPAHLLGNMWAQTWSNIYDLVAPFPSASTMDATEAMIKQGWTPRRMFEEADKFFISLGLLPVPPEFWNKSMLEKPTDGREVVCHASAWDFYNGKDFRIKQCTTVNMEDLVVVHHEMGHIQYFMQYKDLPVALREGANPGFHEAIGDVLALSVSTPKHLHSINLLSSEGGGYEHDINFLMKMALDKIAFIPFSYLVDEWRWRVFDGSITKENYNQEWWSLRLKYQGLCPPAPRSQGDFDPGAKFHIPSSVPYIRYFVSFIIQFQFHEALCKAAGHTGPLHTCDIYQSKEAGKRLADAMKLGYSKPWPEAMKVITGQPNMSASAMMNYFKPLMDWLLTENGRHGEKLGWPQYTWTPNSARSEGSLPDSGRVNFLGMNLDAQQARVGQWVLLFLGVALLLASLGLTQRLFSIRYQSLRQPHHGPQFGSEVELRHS
# testDetails: biochemical
# Type: tissue-based, Lung
experimentalEndpoint: IC50

Recorded IC50, per entry:
1. NC(CO)(CO)CO    Not Active
2. NCC1(CC(=O)O)CCCCC1    Not Active
3. N=C(N)NCCCCNC(=N)N.O=S(=O)(O)O [ARCAINE SULFATE]    Not Active
4. COc1cc(C(=O)NC2CCCNC2)cc(OC)c1OC (stereo not drawn) [TROXIPIDE]    Not Active
5. CN1C(C(=O)Nc2ccccn2)=C(O)c2ccccc2S1(=O)=O    Not Active
6. Brc1ccccc1    Not Active

query: Query the reported IC50 for Angiotensin-converting enzyme (Oryctolagus cuniculus); item: COC(=O)c1ccc(O)cc1
result: Not Active

query: Query the reported IC50 for Angiotensin-converting enzyme (Oryctolagus cuniculus); item: CC(CCc1ccccc1)NCC(O)c1ccc(O)c(C(N)=O)c1 (stereo not drawn)
result: Not Active

====

# targetOfAssay: Glucocorticoid receptor (Homo sapiens); further: in other assays of this panel Not Active means under 50% inhibition at 10 µM
# Sequence (P04150 whole entry): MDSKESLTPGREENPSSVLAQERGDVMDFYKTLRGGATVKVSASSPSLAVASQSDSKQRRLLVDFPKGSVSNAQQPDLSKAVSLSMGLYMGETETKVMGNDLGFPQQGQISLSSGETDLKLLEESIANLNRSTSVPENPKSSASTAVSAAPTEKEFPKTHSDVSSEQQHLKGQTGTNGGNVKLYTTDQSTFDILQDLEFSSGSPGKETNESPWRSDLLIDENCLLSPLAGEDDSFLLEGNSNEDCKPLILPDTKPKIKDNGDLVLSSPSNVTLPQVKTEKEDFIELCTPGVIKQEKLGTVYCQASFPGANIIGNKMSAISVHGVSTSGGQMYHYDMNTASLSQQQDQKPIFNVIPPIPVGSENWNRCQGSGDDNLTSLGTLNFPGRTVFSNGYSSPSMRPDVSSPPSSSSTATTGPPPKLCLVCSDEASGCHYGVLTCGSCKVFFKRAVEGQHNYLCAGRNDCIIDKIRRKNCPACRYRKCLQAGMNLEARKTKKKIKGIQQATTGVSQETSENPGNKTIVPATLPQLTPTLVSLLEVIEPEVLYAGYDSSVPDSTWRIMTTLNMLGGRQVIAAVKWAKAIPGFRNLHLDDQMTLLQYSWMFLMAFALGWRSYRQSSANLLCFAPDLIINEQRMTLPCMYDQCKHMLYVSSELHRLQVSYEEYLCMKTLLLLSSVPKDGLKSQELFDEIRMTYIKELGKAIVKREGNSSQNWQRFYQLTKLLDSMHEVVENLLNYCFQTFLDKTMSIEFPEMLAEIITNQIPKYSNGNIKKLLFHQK
# testDetails: biochemical
experimentalEndpoint: Ki (nM)
Express your answer in nM, writing the number without its unit.

Recorded Ki, per entry:
1. CC(=O)[C@@]1(O)CC[C@H]2[C@@H]3C[C@H](C)C4=CC(=O)C=C[C@]4(C)[C@@]3(F)[C@@H](O)C[C@@]21C [FLUOROMETHOLONE]    1.58
2. CC(=O)S[C@@H]1CC2=CC(=O)CC[C@]2(C)[C@H]2CC[C@@]3(C)[C@@H](CC[C@@]34CCC(=O)O4)[C@H]12 [SPIRONOLACTONE]    865

query: Dear colleague, I am looking for the recorded Ki of the following compound: Clc1ccccc1C(c1ccccc1)(c1ccccc1)n1ccnc1 [CLOTRIMAZOLE]
result: 1480

query: Dear colleague, I am looking for the recorded Ki of the following compound: CC(=O)OCC(=O)[C@@]1(OC(C)=O)[C@@H](C)C[C@H]2[C@@H]3C[C@H](F)C4=CC(=O)C=C[C@]4(C)[C@@]3(F)[C@@H](O)C[C@@]21C [DIFLORASONE DIACETATE]
result: 2.91
